Origin of the recorded values: paper PMC10934055

# reported inhibition at 10 µg/mL; entries follow
target: α-Glucosidase (Saccharomyces cerevisiae); construct: purchased Sigma (Sigma-Aldrich) G5003; assay: biochemical; settings: read-out: α-glucosidase inhibition rate
Report as a plain number; the unit % is understood.

compound	unit_spec	endpoint_value
C[C@H]1O[C@H](O[C@H]2[C@H](O)[C@@H](O)[C@@H](O[C@H]3[C@H](O)[C@@H](O)C(O)O[C@@H]3CO)O[C@@H]2CO)[C@H](O)[C@@H](O)[C@@H]1N[C@H]1C=C(CO)[C@@H](O)[C@H](O)[C@H]1O (some centres unmarked) [acarbose, reference compound]	%	65.7
CC1(C)CC[C@]2(C(=O)O)CC[C@]3(C)C(=CC[C@@H]4[C@@]5(C)CC[C@H](O)C(C)(C)[C@@H]5CC[C@]43C)[C@@H]2C1 [Compound 2, oleanolic acid]	%	61.5
CC[C@H](/C=C/[C@@H](C)[C@H]1CC[C@H]2[C@@H]3CC=C4C[C@@H](O)CC[C@]4(C)[C@H]3CC[C@]12C)C(C)C [Compound 10, stigmasterol]	%	10.1
CC(=O)O[C@H]1CC[C@]2(C)[C@H]3CC=C4[C@@H]5CC(C)(C)CC[C@]5(C(=O)O)CC[C@@]4(C)[C@]3(C)CC[C@H]2C1(C)C [Compound 1, 3-acetyloleanolic acid]	%	56.5

Reported inhibition at 10 µg/mL ( CCC(CC[C@@H](C)[C@H]1CC[C@H]2[C@@H]3CCC4=CC(=O)CC[C@]4(C)[C@H]3CC[C@]12C)C(C)C (stereo partly drawn) [Compound 9, (20R)-24-ethylcholest-4-en-3-one] ) = 17.5

---

molecular target: α-Glucosidase (Saccharomyces cerevisiae, UniProt P53341); construct: purchased Sigma (Sigma-Aldrich) G5003; test: biochemical; conditions: read-out: α-glucosidase inhibition rate;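 note: yeast α-glucosidase premixed with inhibitor in phosphate buffer for 15 min at 37 °C, then a further 15 min reaction with p-NPG substrate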
Sequence (P53341 whole entry): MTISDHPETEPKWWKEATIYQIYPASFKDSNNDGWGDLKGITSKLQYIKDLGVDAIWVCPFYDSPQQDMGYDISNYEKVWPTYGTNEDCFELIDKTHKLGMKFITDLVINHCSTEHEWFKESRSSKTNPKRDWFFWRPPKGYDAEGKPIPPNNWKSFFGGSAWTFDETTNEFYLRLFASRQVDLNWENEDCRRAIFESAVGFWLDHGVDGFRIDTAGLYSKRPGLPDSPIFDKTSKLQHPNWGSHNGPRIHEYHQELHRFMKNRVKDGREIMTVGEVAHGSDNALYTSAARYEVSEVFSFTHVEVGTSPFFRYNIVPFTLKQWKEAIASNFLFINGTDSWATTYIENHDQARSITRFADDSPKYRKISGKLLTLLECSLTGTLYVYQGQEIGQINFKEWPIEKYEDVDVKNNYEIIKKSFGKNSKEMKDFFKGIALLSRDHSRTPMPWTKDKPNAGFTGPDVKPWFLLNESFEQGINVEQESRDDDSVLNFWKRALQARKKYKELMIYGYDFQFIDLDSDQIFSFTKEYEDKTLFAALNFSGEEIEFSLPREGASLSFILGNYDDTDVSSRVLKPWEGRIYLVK
# reported inhibition at 4 µg/mL; entries follow
Report as a plain number; the unit % is understood.

Would you please look over these solved cases?
compound	endpoint_value
CC1(C)CC[C@]2(C(=O)O)CC[C@]3(C)C(=CC[C@@H]4[C@@]5(C)CC[C@H](O)C(C)(C)[C@@H]5CC[C@]43C)[C@@H]2C1	27.8
CCC(CC[C@@H](C)[C@H]1CC[C@H]2[C@@H]3CCC4=CC(=O)CC[C@]4(C)[C@H]3CC[C@]12C)C(C)C (stereo partly drawn) [Compound 9, (20R)-24-ethylcholest-4-en-3-one]	8.3

inhibition at 4 µg/mL for α-Glucosidase (Saccharomyces cerevisiae, UniProt P53341) with input C[C@H]1O[C@H](O[C@H]2[C@H](O)[C@@H](O)[C@@H](O[C@H]3[C@H](O)[C@@H](O)C(O)O[C@@H]3CO)O[C@@H]2CO)[C@H](O)[C@@H](O)[C@@H]1N[C@H]1C=C(CO)[C@@H](O)[C@H](O)[C@H]1O (some centres unmarked) [acarbose, reference compound] equals 25.3

inhibition at 4 µg/mL for α-Glucosidase (Saccharomyces cerevisiae, UniProt P53341) with input "CC[C@H](/C=C/[C@@H](C)[C@H]1CC[C@H]2[C@@H]3CC=C4C[C@@H](O)CC[C@]4(C)[C@H]3CC[C@]12C)C(C)C" equals 4.3

inhibition at 4 µg/mL for α-Glucosidase (Saccharomyces cerevisiae, UniProt P53341) with input "CC(=O)O[C@H]1CC[C@]2(C)[C@H]3CC=C4[C@@H]5CC(C)(C)CC[C@]5(C(=O)O)CC[C@@]4(C)[C@]3(C)CC[C@H]2C1(C)C" equals 24.3
